Entry source: patent US20250346571A1

Record form. Attribute: clearance. Fill in for each entry.
# TEST DESCRIPTION: Pharmacokinetic test in rats
# Type: in vivo, SD rats
# SETTINGS: male, SD, rat, iv; rats, i.v. 2.5 mg/kg, plasma
Numbers only, in mL/min/kg.

Field: example entries. Status: answers known.
[
  {
    "MOL": "Cn1cc(NC(=O)c2ccc(N3CCN(Cc4ccc5nc(C(F)F)c(=O)[nH]c5c4F)CC3)c(F)n2)cn1",
    "REPORTED VALUE": 1.63
  },
  {
    "MOL": "O=C(NC1CC1)c1ccc(N2CCN(Cc3ccc4nc(C(F)F)c(=O)[nH]c4c3F)CC2)c(F)n1",
    "REPORTED VALUE": 3.13
  }
]

Provide the reported clearance of each entry below, same order.
1. Cn1cc(C(=O)Nc2ccc(N3CCN(Cc4ccc5nc(C(F)F)c(=O)[nH]c5c4F)CC3)c(F)n2)cn1
2. Cn1cc(C(=O)Nc2ccc(N3CCN(Cc4ccc5nc(C(F)F)c(=O)[nH]c5c4F)CC3)c(F)n2)c(F)n1
3. Cc1nc2ccc(CN3CCN(c4ccc(C(=O)N[C@@H]5C[C@@H]5F)nc4F)CC3)c(F)c2[nH]c1=O

[0.859, 1.9, 5.36]

* * *

Would you mind telling me the reported Vd of each entry?
# TEST DESCRIPTION: Pharmacokinetic test in rats
# Type: in vivo, SD rats
# SETTINGS: male, SD, rat, iv; rats, i.v. 2.5 mg/kg, plasma; read-out: Vdss
Answers are plain numbers, in L/kg.

Dear colleague, could you please provide Vd for the compounds listed below?
1. Cn1cc(NC(=O)c2ccc(N3CCN(Cc4ccc5nc(C(F)F)c(=O)[nH]c5c4F)CC3)c(F)n2)cn1
2. Cn1cc(C(=O)Nc2ccc(N3CCN(Cc4ccc5nc(C(F)F)c(=O)[nH]c5c4F)CC3)c(F)n2)cn1
3. Cc1nc2ccc(CN3CCN(c4ccc(C(=O)N[C@@H]5C[C@@H]5F)nc4F)CC3)c(F)c2[nH]c1=O
4. Cn1cc(C(=O)Nc2ccc(N3CCN(Cc4ccc5nc(C(F)F)c(=O)[nH]c5c4F)CC3)c(F)n2)c(F)n1

1: 0.192; 2: 0.148; 3: 1.13; 4: 0.294

According to the records, this compound `O=C(NC1CC1)c1ccc(N2CCN(Cc3ccc4nc(C(F)F)c(=O)[nH]c4c3F)CC2)c(F)n1` displays Vd of 0.631

* * *

# TEST DESCRIPTION: Pharmacokinetic test in mice
# Format: in vivo, Balb/c mice
# SETTINGS: male, Balb/c, mouse, po; mice, i.g. 10 mg/kg, plasma
AUC(0-t) strictly under 30000 ng·h/mL means True; at 30000 ng·h/mL or over means False.

Solved cases (4 shown):
[
  {
    "MOL": "Cn1cc(C(=O)Nc2ccc(N3CCN(Cc4ccc5nc(C(F)F)c(=O)[nH]c5c4F)CC3)c(F)n2)c(F)n1",
    "CATEGORY": "False"
  },
  {
    "MOL": "Cc1nc2ccc(CN3CCN(c4ccc(C(=O)Nc5cnn(C)c5)nc4F)CC3)c(F)c2[nH]c1=O",
    "CATEGORY": "True"
  },
  {
    "MOL": "O=C(NC1CC1)c1ccc(N2CCN(Cc3ccc4nc(C(F)F)c(=O)[nH]c4c3F)CC2)c(F)n1",
    "CATEGORY": "False"
  },
  {
    "MOL": "Cn1cc(NC(=O)c2ccc(N3CCN(Cc4ccc5nc(C(F)F)c(=O)[nH]c5c4F)CC3)c(F)n2)cn1",
    "CATEGORY": "False"
  }
]

Is 30000 ng·h/mL strictly greater than the compound's reported AUC(0-t)? compound: `Cc1nc2ccc(CN3CCN(c4ccc(C(=O)N[C@H]5C[C@H]5F)nc4F)CC3)c(F)c2[nH]c1=O`
True
